- Test system: LAMPU (purple deadnettle)
- experiment-notes: Pre-emergence herbicidal activity, cool season
- Assay type: in vivo, Lamium purpureum
- test-conditions: lowest tested rate with 80% or greater inhibition; rates 300, 100, 30, 10 g/ha; about 14 days
Task for the reader: assign each of the following compounds its reported Pre-emergence activity GR80, LAMPU.
The reply should be a number in g/ha, with the unit left off.

### Prompt Jot down Pre-emergence activity GR80, LAMPU (LAMPU (purple deadnettle)) of "C=CCN(C)C(=O)n1cnc(S(=O)(=O)C(F)(F)Cl)n1" .
### Response 100

### Prompt Jot down Pre-emergence activity GR80, LAMPU (LAMPU (purple deadnettle)) of "CCN(CC)C(=O)n1cnc(S(=O)(=O)C(F)(F)F)n1" .
### Response 10

### Prompt Jot down Pre-emergence activity GR80, LAMPU (LAMPU (purple deadnettle)) of O=C(N1CCCC1)n1cnc(S(=O)(=O)C(F)(F)C(F)F)n1 [Example 59] .
### Response 100

### Prompt Jot down Pre-emergence activity GR80, LAMPU (LAMPU (purple deadnettle)) of "CCN(CC)C(=O)n1cnc(S(=O)(=O)C(F)(F)C(F)(F)SC)n1" .
### Response 300

### Prompt Jot down Pre-emergence activity GR80, LAMPU (LAMPU (purple deadnettle)) of "CN(C(=O)n1cnc(S(=O)(=O)C(F)(F)Cl)n1)c1ccccc1" .
### Response 100

### Prompt Jot down Pre-emergence activity GR80, LAMPU (LAMPU (purple deadnettle)) of "CCN(CC)C(=S)n1cnc(S(=O)(=O)C(F)(F)Br)n1" .
### Response 100

### Prompt Jot down Pre-emergence activity GR80, LAMPU (LAMPU (purple deadnettle)) of O=C(N1CCCC1)n1cnc(S(=O)(=O)C(F)(F)C(F)F)n1 [Example 71] .
### Response 300

### Prompt Jot down Pre-emergence activity GR80, LAMPU (LAMPU (purple deadnettle)) of "CCN(CC)C(=S)n1cnc(S(=O)(=O)C(F)(F)C(F)(F)Br)n1" .
### Response 300

----------
- System: SORVU (shattercane)
- experiment-notes: Pre-emergence herbicidal activity, warm season
- Assay type: in vivo, Sorghum vulgare
- test-conditions: GR80 = lowest tested rate (300, 100, 30, 10 g/ha) with 80% or greater inhibition; approx. 14 days after treating; 30/21° C.
observed-property: Pre-emergence activity (GR80) SORVU

### Prompt Respond only with Pre-emergence activity (GR80) SORVU recorded for "O=C(N1CCCC1)n1cnc(S(=O)(=O)C(F)(F)Cl)n1"
### Response 300 g/ha

### Prompt Respond only with Pre-emergence activity (GR80) SORVU recorded for "CN(C(=O)n1cnc(S(=O)(=O)C(F)F)n1)C1CCCCC1"
### Response 300 g/ha

### Prompt Respond only with Pre-emergence activity (GR80) SORVU recorded for "CCCN(CC)C(=O)n1cnc(S(=O)(=O)C(F)(F)Cl)n1"
### Response 300 g/ha

### Prompt Respond only with Pre-emergence activity (GR80) SORVU recorded for "C=CCC(F)(F)S(=O)(=O)c1ncn(C(=O)N(CC)CC)n1"
### Response 100 g/ha

### Prompt Respond only with Pre-emergence activity (GR80) SORVU recorded for "C=C(CC(F)(F)S(=O)(=O)c1ncn(C(=O)N(CC)CC)n1)C[Si](C)(C)C"
### Response 300 g/ha

### Prompt Respond only with Pre-emergence activity (GR80) SORVU recorded for "CCN(CC)C(=O)n1cnc(S(=O)(=O)C(F)(F)SC)n1"
### Response 300 g/ha

### Prompt Respond only with Pre-emergence activity (GR80) SORVU recorded for "C=C(Br)CC(F)(F)S(=O)(=O)c1ncn(C(=O)N(CC)CC)n1"
### Response 300 g/ha

### Prompt Respond only with Pre-emergence activity (GR80) SORVU recorded for "CCN(CC)C(=O)n1cnc(S(=O)(=O)C(F)(F)F)n1"
### Response 300 g/ha

### Prompt Respond only with Pre-emergence activity (GR80) SORVU recorded for "CCN(CC)C(=O)n1cnc(S(=O)(=O)C(F)(F)C(F)F)n1"
### Response 100 g/ha

### Prompt Respond only with Pre-emergence activity (GR80) SORVU recorded for "CCCN(CC)C(=O)n1cnc(S(=O)(=O)C(F)(F)SCC)n1"
### Response 30 g/ha

### Prompt Respond only with Pre-emergence activity (GR80) SORVU recorded for "CCN(CC)C(=S)n1cnc(S(=O)(=O)C(F)(F)Cl)n1"
### Response 100 g/ha
